target: Ylr278c (UniProt Q05854); experiment: PBM E-score (8-mer binding enrichment) (E-score (-0.5 to 0.5)); higher = stronger / more preferred TF binding; conditions: protein concentration: 200 nM; construct: GST-DNA-binding domain
Sequence (Q05854 whole entry, the tested form may be a part): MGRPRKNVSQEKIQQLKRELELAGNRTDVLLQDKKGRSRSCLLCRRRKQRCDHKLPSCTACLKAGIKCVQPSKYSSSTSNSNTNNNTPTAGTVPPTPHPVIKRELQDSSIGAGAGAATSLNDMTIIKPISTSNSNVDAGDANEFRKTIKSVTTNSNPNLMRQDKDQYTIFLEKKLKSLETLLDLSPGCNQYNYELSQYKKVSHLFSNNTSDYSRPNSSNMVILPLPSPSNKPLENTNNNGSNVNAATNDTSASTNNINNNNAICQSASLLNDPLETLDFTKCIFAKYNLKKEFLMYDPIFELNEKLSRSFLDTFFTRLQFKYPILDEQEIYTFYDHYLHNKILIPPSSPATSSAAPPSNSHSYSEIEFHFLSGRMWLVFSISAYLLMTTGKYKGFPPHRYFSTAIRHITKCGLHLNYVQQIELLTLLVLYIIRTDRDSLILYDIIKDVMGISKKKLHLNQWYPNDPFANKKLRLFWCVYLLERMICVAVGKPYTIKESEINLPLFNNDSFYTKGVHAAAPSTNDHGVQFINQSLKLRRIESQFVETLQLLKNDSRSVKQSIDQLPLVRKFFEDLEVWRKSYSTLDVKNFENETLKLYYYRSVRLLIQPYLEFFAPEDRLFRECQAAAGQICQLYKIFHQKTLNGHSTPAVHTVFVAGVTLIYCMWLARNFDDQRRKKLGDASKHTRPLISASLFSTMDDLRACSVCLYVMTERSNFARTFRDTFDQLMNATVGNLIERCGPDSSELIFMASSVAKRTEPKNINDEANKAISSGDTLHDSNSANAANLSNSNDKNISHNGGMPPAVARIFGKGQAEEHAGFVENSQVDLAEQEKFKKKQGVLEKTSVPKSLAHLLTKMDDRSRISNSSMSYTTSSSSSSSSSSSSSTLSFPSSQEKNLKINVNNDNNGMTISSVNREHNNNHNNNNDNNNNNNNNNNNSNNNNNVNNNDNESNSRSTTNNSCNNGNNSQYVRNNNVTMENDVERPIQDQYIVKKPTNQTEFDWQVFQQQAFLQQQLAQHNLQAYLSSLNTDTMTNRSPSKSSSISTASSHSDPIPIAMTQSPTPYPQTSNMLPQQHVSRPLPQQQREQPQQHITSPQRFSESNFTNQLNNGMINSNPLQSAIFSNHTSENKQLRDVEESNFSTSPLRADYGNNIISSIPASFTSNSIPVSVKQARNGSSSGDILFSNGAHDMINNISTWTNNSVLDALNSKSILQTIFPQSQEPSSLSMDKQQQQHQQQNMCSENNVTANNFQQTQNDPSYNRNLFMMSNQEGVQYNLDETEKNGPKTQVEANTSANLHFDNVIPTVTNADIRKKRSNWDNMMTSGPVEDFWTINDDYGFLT
Over roughly 33,000 sequences, “E-score (-0.5 to 0.5)” has its median near -0.054; the highest 2% begin near 0.39. Only a selection was taken, and the highest values are over-represented in it overall.
Each item that follows carries a reported PBM E-score.
OBSERVATION TYPE: PBM E-score

sequence_content=GGGAATAA observation_type="PBM E-score" result=0.261
sequence_content=TCCGGGCA observation_type="PBM E-score" result=0.406
sequence_content=CGGAATAA observation_type="PBM E-score" result=0.433
sequence_content=CCGCTCCG observation_type="PBM E-score" result=0.444
sequence_content=AGGAATAG observation_type="PBM E-score" result=0.102
sequence_content=ATGCTCCA observation_type="PBM E-score" result=-0.0254
sequence_content=CGGAATAG observation_type="PBM E-score" result=0.391
sequence_content=GTCGGACA observation_type="PBM E-score" result=0.386
sequence_content=CCGCTCCC observation_type="PBM E-score" result=0.191
sequence_content=GACAGGGC observation_type="PBM E-score" result=-0.0701
sequence_content=ATCGGACC observation_type="PBM E-score" result=0.412
sequence_content=CAGAATAG observation_type="PBM E-score" result=-0.179
sequence_content=AGGCTCCA observation_type="PBM E-score" result=-0.133
sequence_content=CGGAATAC observation_type="PBM E-score" result=0.423
sequence_content=CGTCGGAG observation_type="PBM E-score" result=0.441
sequence_content=CCGGGGCG observation_type="PBM E-score" result=0.42
sequence_content=AGGAATAC observation_type="PBM E-score" result=-0.0793
sequence_content=ATTCGCTA observation_type="PBM E-score" result=-0.0743
sequence_content=ATCGAAAG observation_type="PBM E-score" result=-0.0309
sequence_content=GCCAGTTA observation_type="PBM E-score" result=-0.0644
sequence_content=ATGCAGCG observation_type="PBM E-score" result=0.0411
sequence_content=CCGGGGCA observation_type="PBM E-score" result=0.293
